# Target Or Test System: rh beta tryptase (Homo sapiens, UniProt Q15661)
# Construct: purchased Promega
# Sequence (Q15661 31-275): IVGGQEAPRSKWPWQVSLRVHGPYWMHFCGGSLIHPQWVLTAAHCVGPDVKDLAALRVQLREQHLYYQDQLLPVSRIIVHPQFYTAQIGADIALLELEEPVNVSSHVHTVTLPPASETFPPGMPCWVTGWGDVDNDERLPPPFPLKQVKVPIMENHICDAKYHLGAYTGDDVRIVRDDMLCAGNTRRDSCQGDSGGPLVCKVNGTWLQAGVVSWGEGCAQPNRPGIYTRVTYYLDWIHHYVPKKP
# Experimental Protocol: tryptase inhibition test (cleavage of N-p-tosyl-Gly-Pro-Lys-para-nitroaniline, p-nitroaniline measured at 405 nm)
# Assay type: biochemical
# Experimental Context: Tris HCl buffer pH 7.4 with calcium and heparin; substrate 0.6 mM; 5 minutes' pre-incubation, 5 minutes incubation at 37° C.
Where a name gives a salt, the structure may show the parent alone.
Note to self: IC50 under 40 nM means 1, ties and anything higher get 0.

**Q:** Hi there! Is IC50 for `COc1ccccc1N1CCN(CC(=O)N(Cc2cccc3ccccc23)c2ccc3c(c2)nc(CCc2ccc(C(=N)N)cc2)n3C)CC1` below 40 nM, do you know?
**A:** 1

**Q:** Hi there! Is IC50 for CN(C)CCOCC(=O)N(Cc1cccc2ccccc12)c1ccc2c(c1)nc(CCc1ccc(C(=N)N)cc1)n2C [Example 59, dihydrochloride] below 40 nM, do you know?
**A:** 0

**Q:** Hi there! Is IC50 for Cn1c(CCc2ccc(C(=N)N)cc2)nc2cc(NC(=O)C(N)Cc3ccc(C(=N)N)cc3)ccc21 (centres unmarked) below 40 nM, do you know?
**A:** 0

**Q:** Hi there! Is IC50 for Cn1c(CCc2ccc(C(=N)N)cc2)nc2cc(N(Cc3cccc4ccccc34)C(=O)CNCc3ccc(-c4ccccc4)cc3)ccc21 [Example 45, dihydrochloride] below 40 nM, do you know?
**A:** 1

**Q:** Hi there! Is IC50 for `CCOC(=O)c1ccc(CNCC(=O)N(Cc2cccc3ccccc23)c2ccc3c(c2)nc(CCc2ccc(C(=N)N)cc2)n3C)cc1` below 40 nM, do you know?
**A:** 1

**Q:** Hi there! Is IC50 for `Cn1c(CCc2ccc(C(=N)N)cc2)nc2cc(N(Cc3cccc4ccccc34)C(=O)CNCc3ccccc3)ccc21` below 40 nM, do you know?
**A:** 1

**Q:** Hi there! Is IC50 for `CCN(CC)CC(=O)N(Cc1cccc2ccccc12)c1ccc2c(c1)nc(CCc1ccc(C(=N)N)cc1)n2C` below 40 nM, do you know?
**A:** 1

**Q:** Hi there! Is IC50 for Cc1ccc(CNCC(=O)N(Cc2cccc3ccccc23)c2ccc3c(c2)nc(CCc2ccc(C(=N)N)cc2)n3C)cc1 [Example 60, dihydrochloride] below 40 nM, do you know?
**A:** 1

**Q:** Hi there! Is IC50 for Cn1c(CCc2ccc(C(=N)N)cc2)nc2cc(N(Cc3cccc4ccccc34)C(=O)CNCc3ccccc3[N+](=O)[O-])ccc21 [Example 49, dihydrochloride] below 40 nM, do you know?
**A:** 1

**Q:** Hi there! Is IC50 for `Cn1c(CCc2ccc(C(=N)N)cc2)nc2cc(N(Cc3cccc4ccccc34)C(=O)CCCCCN)ccc21` below 40 nM, do you know?
**A:** 1

**Q:** Hi there! Is IC50 for `CN(C)CCCC(=O)N(Cc1ccccc1)c1ccc2c(c1)nc(CCc1ccc(C(=N)N)cc1)n2C` below 40 nM, do you know?
**A:** 0

**Q:** Hi there! Is IC50 for CCN(CC)c1ccc(CNCC(=O)N(Cc2cccc3ccccc23)c2ccc3c(c2)nc(CCc2ccc(C(=N)N)cc2)n3C)cc1 [Example 54, dihydrochloride] below 40 nM, do you know?
**A:** 1

**Q:** Hi there! Is IC50 for Cn1c(CCc2ccc(C(=N)N)cc2)nc2cc(N(Cc3cccc4ccccc34)C(=O)CNCc3ccncc3)ccc21 [Example 48, dihydrochloride] below 40 nM, do you know?
**A:** 1

**Q:** Hi there! Is IC50 for Cn1c(CCc2ccc(C(=N)N)cc2)nc2cc(N(Cc3cccc4ccccc34)C(=O)CN3CCC(O)(Cc4ccccc4)CC3)ccc21 [Example 69, dihydrochloride] below 40 nM, do you know?
**A:** 1

**Q:** Hi there! Is IC50 for `CN(C(=O)CCc1ccc(C(=N)N)cc1)c1ccc2c(c1)nc(CCc1ccc(C(=N)N)cc1)n2C` below 40 nM, do you know?
**A:** 0

**Q:** Hi there! Is IC50 for `Cn1c(CCc2ccc(C(=N)N)cc2)nc2cc(N(Cc3cccc4ccccc34)C(=O)CCCCN)ccc21` below 40 nM, do you know?
**A:** 1

**Q:** Hi there! Is IC50 for `CC(C)CN(C(=O)CCc1ccc(C(=N)N)cc1)c1ccc2c(c1)nc(CCc1ccc(C(=N)N)cc1)n2C` below 40 nM, do you know?
**A:** 0

**Q:** Hi there! Is IC50 for Cn1c(CCc2ccc(C(=N)N)cc2)nc2cc(N(Cc3ccccc3)C(=O)CCCCN)ccc21 [Example 32, dihydrochloride] below 40 nM, do you know?
**A:** 0

**Q:** Hi there! Is IC50 for `Cn1c(CCc2ccc(C(=N)N)cc2)nc2cc(N(Cc3ccccc3)C(=O)CCC3CCNCC3)ccc21` below 40 nM, do you know?
**A:** 0

**Q:** Hi there! Is IC50 for `Cn1c(CCc2ccc(C(=N)N)cc2)nc2cc(N(Cc3cccc4ccccc34)C(=O)CCCNC(=N)N)ccc21` below 40 nM, do you know?
**A:** 1

**Q:** Hi there! Is IC50 for `CN(C(=O)CCC1CCN(Cc2ccccc2)CC1)c1ccc2c(c1)nc(CCc1ccc(C(=N)N)cc1)n2C` below 40 nM, do you know?
**A:** 0

**Q:** Hi there! Is IC50 for `Cn1c(CCc2ccc(C(=N)N)cc2)nc2cc(N(Cc3cccc4ccccc34)C(=O)CCC3CCNCC3)ccc21` below 40 nM, do you know?
**A:** 0

**Q:** Hi there! Is IC50 for COc1ccc(CNCC(=O)N(Cc2cccc3ccccc23)c2ccc3c(c2)nc(CCc2ccc(C(=N)N)cc2)n3C)cc1 [Example 43, dihydrochloride] below 40 nM, do you know?
**A:** 1

**Q:** Hi there! Is IC50 for Cn1c(CCc2ccc(C(=N)N)cc2)nc2cc(N(Cc3cccc4ccccc34)C(=O)CCC3CCN(C(c4ccccc4)c4ccccc4)CC3)ccc21 [Example 64, trihydrochloride] below 40 nM, do you know?
**A:** 1
